# credit: ChEMBL document CHEMBL1201862

Entries with their measured AC50, system Cytochrome P450 1A2 (Homo sapiens):
experimental_endpoint: AC50

smiles_repr	readout_value
Cn1c(=O)n(CC#N)c2ccccc21	12.6 µM (inconclusive)
COc1cccc(Cn2c(=O)c(C)nc3cnc(Oc4cccc(Cl)c4)nc32)c1	25.1 µM (inconclusive)
COCCn1c(C)cc(C2=NN=C(Nc3ccc(F)cc3)SC2)c1C	11.2 µM (inconclusive)
CC1=CC(C)(C)Nc2ccc(CSc3ccccc3)cc21	0.501 µM (inconclusive)

----------
Target chain: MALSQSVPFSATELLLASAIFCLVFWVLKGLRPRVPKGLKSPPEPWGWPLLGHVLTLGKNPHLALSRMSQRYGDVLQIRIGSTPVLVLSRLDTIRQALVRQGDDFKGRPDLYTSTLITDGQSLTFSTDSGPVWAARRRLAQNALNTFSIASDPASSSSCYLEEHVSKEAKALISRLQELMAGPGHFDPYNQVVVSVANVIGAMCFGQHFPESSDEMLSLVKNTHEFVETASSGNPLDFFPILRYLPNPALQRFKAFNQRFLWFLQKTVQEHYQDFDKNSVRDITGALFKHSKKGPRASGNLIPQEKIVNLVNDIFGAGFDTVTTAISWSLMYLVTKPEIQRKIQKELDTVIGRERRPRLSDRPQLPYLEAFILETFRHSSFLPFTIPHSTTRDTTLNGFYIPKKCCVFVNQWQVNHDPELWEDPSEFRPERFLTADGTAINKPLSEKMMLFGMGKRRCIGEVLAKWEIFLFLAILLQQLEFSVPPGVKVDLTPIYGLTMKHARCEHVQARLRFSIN
Reported AC50 is given for each of the following compounds.

compound	AC50
CCCCC#Cc1nc(NC)c2ncn([C@@H]3O[C@@H](CO)[C@H](O)[C@H]3O)c2n1	31.6 µM (inconclusive)
CCOC(=O)c1c(N2C(=O)Nc3cc(Cl)c(Cl)cc3N2O)sc2c1CCCCC2	39.8 µM (inconclusive)
CC(=O)Nc1ccc(NC(=O)CSc2nnc(-c3ccccc3)n2Cc2ccc3c(c2)OCO3)cc1	31.6 µM (inconclusive)
CCOC(=O)C1CCCN(C(=O)c2cc3nc(-c4ccc5c(c4)OCO5)cc(C(F)(F)F)n3n2)C1 (centres undefined)	25.1 µM (inconclusive)
Cc1cccc(NC(=O)NNC(=O)c2cc(-c3ccccc3Cl)nc3ccccc23)c1	15.8 µM (inconclusive)
O=C(NCc1ccc(Cl)cc1)c1ccc(Cl)cc1[N+](=O)[O-]	2.82 µM (inconclusive)
O=C(c1cccc(F)c1)N1CCC2(CC1)CCN(C(c1ccccc1)c1ccccc1)CC2	10 µM (inconclusive)
O=C(NCCc1c[nH]c2ccccc12)[C@@H]1C[C@H]1[C@@H](NP(=O)(c1ccccc1)c1ccccc1)c1ccccc1	15.8 µM (inconclusive)
CCCN(CCO)Cc1ccc(F)c(Br)c1	15.8 µM (inconclusive)

----------
- protocol: inhibitors of SNCA 5'UTR-driven reporter translation, confirmation, H4 neuroglioma cells, luminescence (AID 1988)
- Assay type: functional, cell-based
Calls of active or inactive are those of the source.
experimental_endpoint: EC50

smiles_repr	readout_value
COc1ccc(CNC(=O)c2coc(=O)c3ccccc23)c(OC)c1	> 120 µM (not active)
O=C(N/N=C/c1cnc(N2CCCCC2)s1)c1ccc(C(F)(F)F)cc1	9.6 µM (active)
O=C(CNC(=O)c1ccccc1O)N/N=C/c1cc(Br)ccc1OC(=O)/C=C/c1ccco1	9.47 µM (active)
CN(C)c1oc(-c2ccccc2Cl)nc1C#N	33.3 µM (active)

----------
- Tested on: H9c2;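 further: cell death induced by hydrogen peroxide oxidative stress; compound pretreatment for 60 min then peroxide exposure for 2 h; potency is for protecting the cells against peroxide damage rather than for killing them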;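 further: confirmatory concentration-response retest of ultra-high-throughput screening hits for modulation of myocardial damage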
- protocol: cells
- Type: functional, cell-based
- condition_parameters: Rattus norvegicus, H9c2, Myocardium
Activity calls are given as the source filed them.
Outcomes: active, inactive

smiles_repr	class
Cc1ccc(C)c(C(=O)Nc2cc(C)nn2-c2nc(C)cc(C)n2)c1	inactive
COc1ccc(-c2cc(-c3ccc(O)cc3)nc(N)c2C#N)cc1OC	inactive
COc1cc2c(cc1OC)CN(c1nc(-c3cccnc3)nc3ccccc13)CC2	inactive
COc1cccc(-c2cnc3c(NC=O)cc(-c4cc(C)c(O)c(C)c4)cn23)c1	inactive
COc1cc(/C=C(\C#N)C(=O)Nc2ccccc2)ccc1OCCN1CCOCC1	inactive
CCOc1cc(/C=C/c2ccc3cccc([N+](=O)[O-])c3n2)ccc1OCC(=O)N(C)C	active

----------
- target_of_assay: Short transient receptor potential channel 4 (Mus musculus)
- Sequence (Q9QUQ5 whole entry): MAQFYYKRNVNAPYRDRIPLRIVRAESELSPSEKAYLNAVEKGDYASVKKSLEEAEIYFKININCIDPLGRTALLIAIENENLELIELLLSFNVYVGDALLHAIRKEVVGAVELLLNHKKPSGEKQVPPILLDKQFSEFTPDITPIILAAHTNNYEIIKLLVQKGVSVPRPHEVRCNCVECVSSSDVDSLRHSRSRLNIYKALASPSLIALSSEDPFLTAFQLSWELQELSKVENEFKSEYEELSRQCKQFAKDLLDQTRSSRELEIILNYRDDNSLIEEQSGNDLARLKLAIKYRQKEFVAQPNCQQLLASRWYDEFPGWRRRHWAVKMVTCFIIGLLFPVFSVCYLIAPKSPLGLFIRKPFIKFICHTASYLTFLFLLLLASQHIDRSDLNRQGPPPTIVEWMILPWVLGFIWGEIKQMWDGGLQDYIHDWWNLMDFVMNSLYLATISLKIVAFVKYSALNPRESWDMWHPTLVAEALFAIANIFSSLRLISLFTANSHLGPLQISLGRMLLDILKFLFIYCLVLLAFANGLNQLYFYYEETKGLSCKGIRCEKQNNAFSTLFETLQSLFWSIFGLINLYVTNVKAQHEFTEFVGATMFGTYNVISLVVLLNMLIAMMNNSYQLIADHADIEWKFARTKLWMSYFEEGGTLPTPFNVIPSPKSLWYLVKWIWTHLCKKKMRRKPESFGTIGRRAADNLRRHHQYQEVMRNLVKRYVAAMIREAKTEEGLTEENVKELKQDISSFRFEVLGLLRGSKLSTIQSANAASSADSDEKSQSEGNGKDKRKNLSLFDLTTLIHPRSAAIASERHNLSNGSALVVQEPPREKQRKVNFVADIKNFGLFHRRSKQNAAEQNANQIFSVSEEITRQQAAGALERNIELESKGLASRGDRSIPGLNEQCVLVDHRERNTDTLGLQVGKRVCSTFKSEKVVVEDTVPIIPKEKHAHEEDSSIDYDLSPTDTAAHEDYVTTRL
- protocol: mouse TRPC4 channel activators, dose response, cell-based, HEK293 TRPC4/mu-opioid, Fluo-4 calcium (AID 434937)
- Type: functional
Activity calls are given as the source filed them.
experimental_endpoint: EC50

molecule	experimental_endpoint	readout_value
CCCN(CCC)CCCNC(=O)c1cc2c(-c3ccc(OC)c(OC)c3)nn(C)c2s1	EC50	531 nM (active)
COc1ccc(C(CNC(=O)c2cccc(NS(=O)(=O)c3ccc(Br)cc3)c2)N(C)C)cc1 (stereo unspecified)	EC50	5310 nM (active)
CNCCOc1ccc(Cl)c(Cl)c1	EC50	944 nM (active)
Cc1ccc(-n2cc(CNC(C)c3cnn(C)c3)c(-c3ccc(F)cc3)n2)cc1 (stereo unspecified)	EC50	1880 nM (active)
CCCCC(=O)NNC(=S)NC(=O)C(c1ccccc1)c1ccccc1	EC50	2660 nM (active)
CC(NCc1cc(Br)ccc1OCC(=O)NCc1ccccc1)c1ccccc1 (stereo unspecified)	EC50	7500 nM (active)

----------
Entries with their measured AC50, system Cytochrome P450 3A4 (Homo sapiens, UniProt P08684):
experimental_endpoint: AC50

compound	readout_value
CC1(C)CC(=O)C(CCC(=O)c2ccccc2)C(C)(C)N1 (centres undefined)	12.6 µM (inconclusive)
O=C(N/N=C/c1ccco1)/C(=C/c1cccc([N+](=O)[O-])c1)NC(=O)c1ccccc1	1.12 µM (inconclusive)
O=C(Cn1c(C(F)(F)F)nc2ccccc21)c1ccc(F)cc1	12.6 µM (inconclusive)
O=C(Cn1cccc1)NC1CCCCCC1	17.8 µM (inconclusive)
CC(C)n1c(=O)c2c(=O)cc(O)oc2c2ccccc21	2.51 µM (inconclusive)
CSc1n[nH]c(-c2sccc2OCc2ccc(C)cc2)n1	20 µM (inconclusive)
CC1=Nc2ccccc2/C1=C\c1nc(-c2ccc(C(F)(F)F)cc2)oc1O	28.2 µM (inconclusive)
C(=N\N(c1ccccc1)c1ccccc1)/c1ccc2c(c1)OCO2	15.8 µM (inconclusive)
CC[C@H](C)N(C)C(=O)c1cc2ccccc2c(-c2ccccc2Cl)n1	20 µM (inconclusive)
Cc1ccc(CS(=O)(=O)CCC(=O)NCc2ccccn2)cc1	31.6 µM (inconclusive)
CCCn1c(=O)c2[nH]c(-c3ccccc3)nc2n(CCC)c1=O	2.51 µM (inconclusive)
CCOC(=O)c1c(N2C(=O)Nc3cc(Cl)c(Cl)cc3N2O)sc2c1CCCCC2	10 µM (inconclusive)
COc1ccc(CNc2nc(-c3ccc(C(=O)N(C)C)cc3)nc3ccccc23)c(OC)c1	3.98 µM (inconclusive)
CN(C)c1ccc(C(c2ccc(N(C)C)cc2)c2ccc([N+](=O)[O-])cc2)cc1	2 µM (inconclusive)
CO[C@H]1COC(=O)[C@@H](C)COC(=O)[C@@H](Cc2ccccc2)NC(=O)C/C=C\[C@H]1C	6.31 µM (inconclusive)
C(=N\Nc1nc(Nc2ccccc2)nc(N2CCOCC2)n1)/c1c[nH]c2ccccc12	15.8 µM (inconclusive)
Cc1ccc(CSC(=N)Nc2ccccc2)cc1C	3.16 µM (inconclusive)
CCCCSc1nc(C)cc(C)c1S(=O)(=O)c1ccccc1C	28.2 µM (inconclusive)
O=C1C2C3C=CC([C@@H]2C(=O)N1C1CCCCC1)[C@H]1C(=O)N(C2CCCCC2)C(=O)C31 (some centres undefined)	3.55 µM (inconclusive)

----------
Reported EC50 is given for each of the following molecules.
- protocol: Luminescence Cell-Based Dose Confirmation HTS to Identify Inhibitors of Platelet Dense Granule Release. [Related pubchem assays: 1663 (Primary HTS), 1678 (Summary of Project)]
- Assay type: functional
Calls of active or inactive are those of the source.

smiles_repr	EC50
COC(=O)c1c(C)[nH]c(C(=O)OCC(=O)N2c3ccccc3NC(=O)C2(C)C)c1C	> 112 µM (not active)
CCOC(=O)c1c(N)sc(C(=O)Nc2ccc3c(c2)OCO3)c1C	3.34 µM (active)
CN(c1ccc(C(=O)Nc2ccc3c(c2)OCO3)cc1)S(C)(=O)=O	6 µM (active)
Cc1ccc(NC(=O)COC(=O)[C@H](C)NC(=O)c2ccccc2)cc1S(=O)(=O)N1CCOCC1	> 112 µM (not active)

----------
- target_of_assay: Peroxisome proliferator-activated receptor gamma/Nuclear receptor coactivator 1 (Homo sapiens, UniProt P37231)
- Sequence (P37231 whole entry): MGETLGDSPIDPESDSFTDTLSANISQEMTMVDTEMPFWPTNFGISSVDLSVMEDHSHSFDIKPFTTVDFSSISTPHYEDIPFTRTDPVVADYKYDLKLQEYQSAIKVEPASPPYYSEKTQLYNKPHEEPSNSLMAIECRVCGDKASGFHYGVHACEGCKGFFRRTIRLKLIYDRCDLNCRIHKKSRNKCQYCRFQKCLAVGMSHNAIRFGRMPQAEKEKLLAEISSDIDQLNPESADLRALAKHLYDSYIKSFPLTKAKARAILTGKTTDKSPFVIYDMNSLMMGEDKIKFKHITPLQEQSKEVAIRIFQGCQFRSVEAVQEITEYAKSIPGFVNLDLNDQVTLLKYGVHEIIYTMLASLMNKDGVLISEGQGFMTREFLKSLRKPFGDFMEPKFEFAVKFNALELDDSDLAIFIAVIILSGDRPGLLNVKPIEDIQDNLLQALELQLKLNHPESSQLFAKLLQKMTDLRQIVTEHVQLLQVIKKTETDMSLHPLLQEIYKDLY
- Sequence (Q15788 whole entry, further chain): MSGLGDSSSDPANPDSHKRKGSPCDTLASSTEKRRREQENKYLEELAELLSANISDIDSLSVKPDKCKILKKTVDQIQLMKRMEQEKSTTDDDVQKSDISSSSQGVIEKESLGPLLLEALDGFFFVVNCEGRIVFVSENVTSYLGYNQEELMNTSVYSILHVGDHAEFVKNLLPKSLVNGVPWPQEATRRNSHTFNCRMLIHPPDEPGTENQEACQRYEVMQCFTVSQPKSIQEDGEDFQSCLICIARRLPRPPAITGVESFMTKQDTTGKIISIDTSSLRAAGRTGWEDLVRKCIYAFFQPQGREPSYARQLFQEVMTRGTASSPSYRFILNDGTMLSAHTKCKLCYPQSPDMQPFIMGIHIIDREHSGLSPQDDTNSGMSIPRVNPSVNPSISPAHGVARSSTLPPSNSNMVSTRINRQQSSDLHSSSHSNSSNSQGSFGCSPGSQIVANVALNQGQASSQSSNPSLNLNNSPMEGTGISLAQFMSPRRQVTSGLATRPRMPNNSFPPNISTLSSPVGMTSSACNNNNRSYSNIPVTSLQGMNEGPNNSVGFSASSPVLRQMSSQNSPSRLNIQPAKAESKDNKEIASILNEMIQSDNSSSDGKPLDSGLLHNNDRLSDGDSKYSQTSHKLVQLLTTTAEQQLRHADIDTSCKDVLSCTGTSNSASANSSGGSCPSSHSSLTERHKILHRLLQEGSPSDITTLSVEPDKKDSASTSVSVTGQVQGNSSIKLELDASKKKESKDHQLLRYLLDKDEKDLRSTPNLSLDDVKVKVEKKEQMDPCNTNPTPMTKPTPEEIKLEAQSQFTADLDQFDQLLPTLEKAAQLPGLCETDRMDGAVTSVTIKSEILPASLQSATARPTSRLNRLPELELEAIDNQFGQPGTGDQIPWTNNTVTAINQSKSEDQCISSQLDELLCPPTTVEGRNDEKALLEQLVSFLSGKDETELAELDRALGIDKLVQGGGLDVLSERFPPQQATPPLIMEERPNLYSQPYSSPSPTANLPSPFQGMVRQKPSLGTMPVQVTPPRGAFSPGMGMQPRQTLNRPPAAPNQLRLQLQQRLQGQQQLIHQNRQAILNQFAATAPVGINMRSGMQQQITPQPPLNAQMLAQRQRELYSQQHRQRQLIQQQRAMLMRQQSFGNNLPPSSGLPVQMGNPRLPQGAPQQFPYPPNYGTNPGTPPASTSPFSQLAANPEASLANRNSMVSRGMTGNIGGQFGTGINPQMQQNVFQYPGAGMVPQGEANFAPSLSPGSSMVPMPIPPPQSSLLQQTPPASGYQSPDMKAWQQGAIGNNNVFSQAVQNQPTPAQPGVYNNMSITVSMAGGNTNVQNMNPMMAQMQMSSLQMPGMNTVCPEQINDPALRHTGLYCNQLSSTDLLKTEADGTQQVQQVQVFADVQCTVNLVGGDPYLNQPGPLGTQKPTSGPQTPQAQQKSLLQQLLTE
- protocol: TR-FRET dose response biochemical High Throughput Screening assay for agonists of the steroid receptor coactivator 1 (SRC-1) recruitment by the peroxisome proliferator-activated receptor gamma (PPAR gamma): non-selective agonists. [Related pubchem assays (depositor defined):AID1300, AID1808, AID504735, AID631]
- Type: protein assay
Active and inactive are the calls of the source.
Outcomes: active, inactive

smiles_repr	class
CN(CCCNC(=O)CSc1cc(=O)n(C)c2cc(Cl)ccc12)Cc1ccccc1	inactive
O=C(COc1ccc2ccccc2c1)NCCNC(=O)COc1ccc2ccccc2c1	active
CSc1cnn(-c2ccccc2)c(=O)c1SC	active
CCCCN(CC)C(=O)CSc1cc(=O)n(C)c2ccccc12	inactive
